Could you please report measured %Inh for the items listed next?
- Test system: PAK1;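 further: KINOMEscan kinase panel screen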
- measurement-context: concentration: 1 μM, replicates: in singlicate; n = 1
Just the number plus its unit, please.

The recorded %Inh for entry "CCn1cnc2c(N)ncnc21" equals 9%

The recorded %Inh for entry "O=C(Nc1cccc(-c2nn3ncccc3c2-c2ccnc(Nc3cccc(C(F)(F)F)c3)n2)c1)c1c(F)cccc1F" equals 0%

The recorded %Inh for entry COc1ccc(Nc2nccc(N3CCC(NC(=O)Nc4cc(C)ccc4C)C3)n2)cc1 (stereo not drawn) equals 7%

The recorded %Inh for entry "c1ccc(-c2cc(-c3c[nH]nc3-c3ccccn3)ccn2)cc1" equals 16%

The recorded %Inh for entry "CN1c2ccc(NCc3ccc(F)cc3)cc2-c2c(cnn2C)S1(=O)=O" equals 0%

The recorded %Inh for entry "NS(=O)(=O)c1cccc(-c2ccc3nccc(-c4cccc(S(N)(=O)=O)c4)c3c2)c1" equals 7%

The recorded %Inh for entry "O=C(NCCNc1ccnc(Nc2ccc(F)cc2)n1)c1cc2ccccc2s1" equals 6%

The recorded %Inh for entry Cc1nnc(-c2ccc3occ(-c4ccc(C(C)O)cc4)c3c2)o1 (stereo not drawn) equals 14%

The recorded %Inh for entry "Fc1ccc(-c2nn3c(OCC(F)(F)F)cccc3c2-c2ccncc2)cc1" equals 0%
